Cited source: patent US20240067748A1

Target: T1, human TROP2 protein (Sino Biological, #10428-H08H) (human, UniProt P09758 27-274)
T1 construct: bought protein; also called human Trop2 protein antigen (His tag); not shown: His tag
T1 sequence (looked up): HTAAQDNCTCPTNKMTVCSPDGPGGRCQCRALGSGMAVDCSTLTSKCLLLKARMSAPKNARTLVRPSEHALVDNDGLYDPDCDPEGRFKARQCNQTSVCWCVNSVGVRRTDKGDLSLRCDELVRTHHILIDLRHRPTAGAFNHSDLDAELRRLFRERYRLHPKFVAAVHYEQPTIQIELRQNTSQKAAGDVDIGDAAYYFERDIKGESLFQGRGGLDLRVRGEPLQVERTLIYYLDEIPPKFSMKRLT
Experiment: BLI, Octet RED96, AHC sensor
Procedure: Specifically, a human TROP2 protein (Sino Biological, #10428-H08H) or a monkey Trop2 protein (Sino Biological, #90893-C08H) was diluted to 200 nM with a PBS buffer (pH 7.4) containing 0.1% (w/w) BSA and 0.02% (v/v) tween 20, and incubated with the AHC sensor respectively. […] The association and dissociation signals between the Trop2 antibody and the human Trop2 protein or monkey Trop2 protein were recorded by Octet Red 96 in real time. […]
Listing of recorded Response by entry.
// keep it numeric: no unit symbol after the value

{"binder": "PR001151 (antibody, human IgG1, kappa, V domains shown, fully human IgG1/kappa; also called antibody No. (14)) VH: QVQLVESGGGVVQPGRSLRLSCAASGFTFSHYGMHWVRQAPGKGLEWVAVIWYDGIKKDYVESVKGRFTISRDNSKNTLYLQMNRLRAEDTAVYYCARDGGFGELNYYGLDVWGQGTTVTVSS VL: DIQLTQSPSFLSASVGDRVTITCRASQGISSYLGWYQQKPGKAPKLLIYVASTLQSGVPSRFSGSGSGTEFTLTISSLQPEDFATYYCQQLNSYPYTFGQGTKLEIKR", "Response": 0.407}

Data request: Which Response value belongs to PR001158 (antibody, human IgG1, kappa, V domains shown, fully human IgG1/kappa; also called antibody No. (20)) VH: QVQLVESGGGVVQPGRSLRLSCVASGFTFSHYGMHWVRQAPGKGLEWVAVIWYDGIKKYYVESVKGRFTISRDNSKNTLNLQMNRLRAEDTAVYYCARDGGFGESNYYGLDVWGQGTTVTVSS VL: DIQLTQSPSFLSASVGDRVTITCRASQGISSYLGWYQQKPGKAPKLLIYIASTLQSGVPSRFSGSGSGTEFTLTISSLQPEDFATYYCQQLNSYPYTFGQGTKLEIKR ?
Data returned: 0.433

Data request: Which Response value belongs to PR001132 (antibody, human IgG1, kappa, V domains shown, fully human IgG1/kappa; also called antibody No. (4)) VH: QVELVESGGGVVQPGRSLRLSCGASGFTFSSYNMYWVRQAPGKGLEWVAGIWDDGNNKYYANSVKGRFTISRDNSKNTLYLQMNSLRTEDTALYYCAKDGWGSYGEYFQHWGQGTLVTVSS VL: DIQMTQSPSSLSASVGERVTITCRASQNINSYLSWYQQKPGKAPKLLIYAASSLQNGVPSRFSGSGSGTDFTLTISSLQPEDFATYYCQQSFSTPPITFGQGTRLEIKR ?
Data returned: 0.417

Data request: Which Response value belongs to PR001143 (antibody, human IgG1, kappa, V domains shown, fully human IgG1/kappa; also called antibody No. (10)) VH: QVQLVESGGGVVQPGRSLRVSCAASGFIFSTYGMHWVRQAPGKGLEWVAVIWYDGSNEDYVDSVKGRFTISRDNSKNTLYLQMNSLRGEDTAVYYCARGGYNSGWWAFDVWGQGTLVTVSS VL: DIQMTQSPSSLSASVGDRVTITCRASQGISHFLAWYQQKPGKVPKLLIYAASTLQSGVPSRFSGSGSGTDFTLTISSLQPEDVATYYCQKFNSAPLTFGGGTKVEIKR ?
Data returned: 0.335

Data request: Which Response value belongs to PR001138 (antibody, human IgG1, kappa, V domains shown, fully human IgG1/kappa; also called antibody No. (7)) VH: QVQLQESGPRLVKPSETLSLTCAVSGYSISSGYYWGWIRQSPGMGLEWIAYIYHDGSTYCNPSLKSRVTMSVDTSKNQFSLKLRSVTAADTAVYYCARDGAAAPFDYWGQGTLVTVSS VL: DIQMTQSPSTLSASVGDRVTITCRASQSISNWLAWYQQKPGKAPKVLIYKASSLESGVPSRFSGSGSGTEFTLTINSLQPDDFATYYCQQYDSYSITFGQGTRLEIKR ?
Data returned: 0.338
